TARGET_OR_SYSTEM: recombinant Aurora A (Homo sapiens, UniProt O14965)
Sequence (O14965 whole entry): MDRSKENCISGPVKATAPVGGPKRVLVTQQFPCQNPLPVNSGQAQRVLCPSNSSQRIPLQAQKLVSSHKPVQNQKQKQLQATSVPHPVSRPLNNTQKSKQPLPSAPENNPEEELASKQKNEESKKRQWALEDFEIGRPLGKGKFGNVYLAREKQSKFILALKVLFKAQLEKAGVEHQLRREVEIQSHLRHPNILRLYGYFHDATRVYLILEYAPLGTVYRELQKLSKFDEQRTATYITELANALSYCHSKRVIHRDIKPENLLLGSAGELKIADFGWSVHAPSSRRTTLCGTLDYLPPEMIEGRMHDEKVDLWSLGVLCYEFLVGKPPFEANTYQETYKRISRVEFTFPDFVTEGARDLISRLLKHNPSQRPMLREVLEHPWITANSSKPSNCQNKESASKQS
ASSAY_REMARKS: Aurora A enzyme assay (IMAP fluorescence polarization, Tamra-PKAtide substrate)
DETAILS: 8 nM enzyme, 25 μM ATP, 100 nM Tamra-PKAtide, 2 hours at room temperature
QUANTITY_MEASURED: IC50 (nM)

Look over these answered cases.
{"GIVEN_SMILES": "CSc1cn2c(-c3cc[nH]n3)cnc2c(Nc2cc(C)ns2)n1", "IC50 / nM": 697}
{"GIVEN_SMILES": "CSc1cn2c(-c3ccco3)cnc2c(Nc2cc(C)ns2)n1", "IC50 / nM": 2530}
{"GIVEN_SMILES": "COc1cccc(Sc2cn3c(-c4cn[nH]c4)cnc3c(Nc3cc(C)ns3)n2)c1", "IC50 / nM": 50}
{"GIVEN_SMILES": "COc1ccccc1Sc1cn2c(-c3cn[nH]c3)cnc2c(Nc2cc(C)ns2)n1", "IC50 / nM": 74}

I. Cc1cc(Nc2nc(Sc3nc4ccccc4s3)cn3c(-c4cn[nH]c4)cnc23)sn1
II. Cc1cc(Nc2nc(Sc3ccc(NC(=O)C4CC4)cc3)cn3c(-c4cn[nH]c4)cnc23)sn1
stdin: Pick one: I or II . Which one has the lower reported IC50? Refer to your chosen item by its label in the answer.
stdout: II
(II: 25 nM, I: 661 nM)

1. CNc1ncc(-c2cnc3c(Nc4cc(C)ns4)nc(SC)cn23)s1
2. CSc1cn2c(-c3cc(C4CC4)[nH]n3)cnc2c(Nc2cc(C)ns2)n1
3. CC(=O)Nc1ccc(Sc2cn3c(-c4cn[nH]c4)cnc3c(Nc3cc(C)ns3)n2)cc1
stdin: Rank by IC50 (largest to smallest). List the labels in the requested order.
stdout: 2, 1, 3

I. CSc1cn2c(-c3cccc(C)c3)cnc2c(Nc2cc(C)ns2)n1
II. Cc1cc(Nc2nc(Sc3ccccc3Cl)cn3c(-c4cn[nH]c4)cnc23)sn1
stdin: Identify the entry with the larger IC50. Options: I and II To answer, give the label that identifies your chosen option.
stdout: I
(I: 14200 nM, II: 600 nM)
